Target: AChE (Electrophorus electricus, UniProt O42275)
Sequence (O42275 24-633): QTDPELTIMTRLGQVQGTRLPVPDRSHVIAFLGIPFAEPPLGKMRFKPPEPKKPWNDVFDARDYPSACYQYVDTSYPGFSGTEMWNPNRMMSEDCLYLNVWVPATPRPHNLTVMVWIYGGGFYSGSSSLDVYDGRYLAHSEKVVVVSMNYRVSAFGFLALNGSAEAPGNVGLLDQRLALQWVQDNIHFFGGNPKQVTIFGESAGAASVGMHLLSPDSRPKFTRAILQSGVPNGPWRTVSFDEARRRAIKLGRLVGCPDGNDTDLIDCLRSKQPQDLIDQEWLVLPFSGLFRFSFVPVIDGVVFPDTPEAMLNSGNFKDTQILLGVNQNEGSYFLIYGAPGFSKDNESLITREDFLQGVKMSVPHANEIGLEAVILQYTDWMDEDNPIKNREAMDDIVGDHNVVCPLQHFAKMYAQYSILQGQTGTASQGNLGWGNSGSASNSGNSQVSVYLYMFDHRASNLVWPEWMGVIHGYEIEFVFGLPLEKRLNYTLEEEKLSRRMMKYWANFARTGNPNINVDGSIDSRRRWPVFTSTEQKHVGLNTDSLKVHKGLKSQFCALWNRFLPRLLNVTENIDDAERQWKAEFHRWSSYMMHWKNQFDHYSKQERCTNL
Test: biochemical
Format: binding
Conditions: read-out: AChE Affinity KD
Property name: pKd
Expect pKd as a plain number equal to -log10 of the molar concentration.

### Prompt For the compound COc1cc2c(=O)c3c(O)c([C@@H]4O[C@H](CO)[C@@H](O)[C@H](O)[C@H]4O)c(O)cc3oc2cc1O , give its measured pKd value.
### Response 4.77

### Prompt For the compound O=c1c2cc(O)ccc2oc2cc(O)c([C@@H]3O[C@H](CO)[C@@H](O)[C@H](O)[C@H]3O[C@@H]3OC[C@](O)(CO)[C@H]3O)c(O)c12 , give its measured pKd value.
### Response 5.92
